- Assay protocol: physchem
- Condition set: pH 7.4 buffer
Listed here: items and their measured solubility thermodynamic.

{"columns": ["Molecule", "solubility thermodynamic [µM]"],
 "data": [
  ["c1csc(-c2n[nH]c3c2Cc2ccccc2-3)c1", 0.6],
  ["COc1c(C)c2c(c(O)c1C/C=C(\\C)CCC(=O)OCCN1CCOCC1)C(=O)OC2 [MYCOPHENOLATE MOFETIL]", 87.1],
  ["O=CN(O)C1(CS(=O)(=O)N2CCN(c3ccc(F)cc3)CC2)CCOCC1", 1380],
  ["CN(c1ccnc(Nc2cccc(S(C)(=O)=O)c2)n1)c1c(Cl)ccc2c1OCO2", 3.5],
  ["COCCOc1cc2nccc(Nc3ccc(Cl)cc3F)c2cc1OC", 33.9],
  ["Cc1cccc(Nc2nnc(C(=O)Nc3ccc(N4CCOCC4)nc3)o2)c1", 4.8],
  ["c1ccc2c(c1)Nc1ccccc1S2", 2.9],
  ["Cc1cnc(NC(=O)CSc2nnc(C)s2)s1", 70.8],
  ["Oc1ncnc2c1c(-c1ccccc1)cn2-c1ccc(Br)cc1", 1.6],
  ["Cc1ccc(C(=O)Nc2ccon2)cc1-n1cnc2ccc(N3CCN(C)CC3)cc2c1=O", 57.5],
  ["Cc1ccc(C(=O)C2CCN(S(=O)(=O)c3c(C)noc3C)CC2)cc1", 2.1],
  ["O=C(Nc1ccc(N2CCOCC2)cc1)c1nnc(Nc2ccccc2)o1", 1.7],
  ["N#CC1(NC(=O)[C@@H]2CCCC[C@H]2C(=O)N2CCc3[nH]c4c(C(F)(F)F)cccc4c3C2)CC1", 144],
  ["O=c1cc(-c2cccc3c2Sc2ccccc2S3)oc(N2CCOCC2)c1", 7.1],
  ["NC1(c2ccc(-c3nn4cccc4cc3-c3ccccc3)cc2)CCC1", 26.3],
  ["CCn1cc(NC(=O)Cc2ccc(Oc3ccnc4cc(OC)c(OC)cc34)cc2)cn1", 10.7],
  ["CCc1cc(Nc2nc(NCc3cc(-c4ccccn4)no3)ncc2Br)n[nH]1", 3.8],
  ["O=C(c1scc2c1CCCC2)N1CCCCC1", 871],
  ["CS(=O)(=O)c1cccc(Nc2nccc(Nc3cccc4ccoc34)n2)c1", 5.4],
  ["CNC(=O)CCc1nc(-c2ccc(OC)cc2)no1", 912],
  ["Oc1nc(-c2ccccc2)c(-c2ccccc2)o1", 107],
  ["CN(C)C(=O)[C@H](Cc1ccccc1)NC(=O)c1cc2cc(Cl)ccc2[nH]1", 2.6]
]}
